// reported PET hydrolysis product formed per item
- PROTOCOL TEXT: PET hydrolysis product formed (TPA+MHET+BHET, UV-Vis) per mg enzyme (mmol/mg enzyme); higher = more PET depolymerisation activity; extreme values may be limits of the assay
- CONDITION: PET substrate: cryPow; 60 °C; pH 4.5; 2 h
Answer with a bare number; do not write a unit.

SEQUENCE DATA | ASSAY VALUE
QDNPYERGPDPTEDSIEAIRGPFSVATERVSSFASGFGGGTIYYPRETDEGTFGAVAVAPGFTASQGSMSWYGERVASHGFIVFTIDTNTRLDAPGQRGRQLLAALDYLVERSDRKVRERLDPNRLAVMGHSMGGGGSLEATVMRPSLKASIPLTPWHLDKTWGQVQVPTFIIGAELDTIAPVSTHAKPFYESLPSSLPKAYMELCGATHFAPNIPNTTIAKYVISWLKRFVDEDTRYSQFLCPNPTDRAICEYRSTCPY [Cut190*SS] | 0
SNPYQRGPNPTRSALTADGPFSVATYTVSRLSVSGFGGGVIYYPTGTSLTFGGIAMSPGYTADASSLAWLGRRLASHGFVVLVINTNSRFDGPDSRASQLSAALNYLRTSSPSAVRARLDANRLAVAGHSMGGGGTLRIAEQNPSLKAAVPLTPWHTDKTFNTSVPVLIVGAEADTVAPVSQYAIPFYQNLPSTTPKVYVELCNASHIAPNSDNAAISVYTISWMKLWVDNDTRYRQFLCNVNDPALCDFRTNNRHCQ [LCC-A2] | 0.0208
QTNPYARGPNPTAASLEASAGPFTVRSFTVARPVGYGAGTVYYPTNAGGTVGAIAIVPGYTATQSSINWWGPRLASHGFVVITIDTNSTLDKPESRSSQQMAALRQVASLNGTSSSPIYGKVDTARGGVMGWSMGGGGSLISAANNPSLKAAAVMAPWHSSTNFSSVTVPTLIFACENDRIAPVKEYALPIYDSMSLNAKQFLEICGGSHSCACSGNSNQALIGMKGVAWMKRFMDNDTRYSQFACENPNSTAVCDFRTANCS [HotPETase] | 0.00338

q: Would you kindly share the measured PET hydrolysis product formed for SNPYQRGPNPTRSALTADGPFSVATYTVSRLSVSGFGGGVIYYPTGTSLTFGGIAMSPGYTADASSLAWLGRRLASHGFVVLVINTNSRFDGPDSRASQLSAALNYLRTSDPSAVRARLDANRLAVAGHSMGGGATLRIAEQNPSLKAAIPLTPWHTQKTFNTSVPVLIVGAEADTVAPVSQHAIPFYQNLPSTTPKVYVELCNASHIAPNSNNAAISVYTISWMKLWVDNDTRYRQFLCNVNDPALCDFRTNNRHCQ [LCC-ICCG DAQI] ?
a: 0

q: # query: PET hydrolysis product formed of entry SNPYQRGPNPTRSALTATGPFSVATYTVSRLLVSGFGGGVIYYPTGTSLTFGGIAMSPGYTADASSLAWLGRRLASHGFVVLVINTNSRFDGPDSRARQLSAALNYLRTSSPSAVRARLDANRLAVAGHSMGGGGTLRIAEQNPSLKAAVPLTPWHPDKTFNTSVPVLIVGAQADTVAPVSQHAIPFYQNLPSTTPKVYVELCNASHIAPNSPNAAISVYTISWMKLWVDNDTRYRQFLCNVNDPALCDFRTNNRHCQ [LCC-ICCG I6M]
a: 0.0118

q: What value of PET hydrolysis product formed has been reported for the following sequence? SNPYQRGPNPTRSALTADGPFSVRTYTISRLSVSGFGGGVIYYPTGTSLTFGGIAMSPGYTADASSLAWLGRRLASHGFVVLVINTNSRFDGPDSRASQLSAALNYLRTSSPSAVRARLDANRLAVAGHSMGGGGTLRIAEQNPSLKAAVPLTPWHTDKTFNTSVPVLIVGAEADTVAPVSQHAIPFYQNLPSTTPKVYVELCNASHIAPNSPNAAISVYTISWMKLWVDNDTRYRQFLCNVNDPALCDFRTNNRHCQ [LCC-ICCG RIP]
a: 0.011

q: Can you look up the measured PET hydrolysis product formed of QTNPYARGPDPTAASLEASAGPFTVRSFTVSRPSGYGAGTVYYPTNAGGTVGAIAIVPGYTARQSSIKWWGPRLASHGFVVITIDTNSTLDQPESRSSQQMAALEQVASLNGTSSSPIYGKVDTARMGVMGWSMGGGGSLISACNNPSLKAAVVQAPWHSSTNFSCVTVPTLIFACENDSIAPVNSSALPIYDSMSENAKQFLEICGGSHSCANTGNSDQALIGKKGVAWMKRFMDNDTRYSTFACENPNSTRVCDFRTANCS [Z1-PETase] for me?
a: 0

q: What value of PET hydrolysis product formed has been recorded for this entry: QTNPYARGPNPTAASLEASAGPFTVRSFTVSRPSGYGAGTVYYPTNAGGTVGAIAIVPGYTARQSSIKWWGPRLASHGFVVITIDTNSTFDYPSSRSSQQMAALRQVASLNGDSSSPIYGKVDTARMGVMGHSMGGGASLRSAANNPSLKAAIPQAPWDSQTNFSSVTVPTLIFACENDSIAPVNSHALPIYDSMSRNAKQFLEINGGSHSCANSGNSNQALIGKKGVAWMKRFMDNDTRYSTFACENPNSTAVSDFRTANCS [DuraPETase]
a: 0
